Species on record: Rattus norvegicus
Method Notes: DrugMatrix - Regimen: Daily Repeat
Format: toxicity, organism-based, Sprague-Dawley
Parameters: regimen Daily Repeat, gender Male, age 6-8 weeks
Conditions: in vivo, po, 0 mg/kg, 72 h, tissue Plasma, route oral GAVAGE, dose level Control, time 3 day, vehicle .5 % CMC
Parameter Measured: BLOOD UREA NITROGEN (mg/dL)
Note: unit mg/dL is implicit; provide only the numeric part.

Briefly, BLOOD UREA NITROGEN measured for `CC(=O)Oc1ccc(C(c2ccc(OC(C)=O)cc2)c2ccccn2)cc1` : 15.67

// field: BLOOD UREA NITROGEN; key: CNCCC(Oc1ccc(C(F)(F)F)cc1)c1ccccc1 (stereo not drawn) ; value = 16.83

# BLOOD UREA NITROGEN of `C[C@H]1O[C@@H](n2cc(F)c(=O)[nH]c2=O)[C@H](O)[C@@H]1O` = 17.33

Documented BLOOD UREA NITROGEN of O=C1Nc2ccc(Cl)cc2C(c2ccccc2Cl)=NC1O (stereo not drawn) : 17.33

Record CC(C(=O)O)c1ccc2oc(-c3ccc(Cl)cc3)nc2c1 (stereo not drawn) , field BLOOD UREA NITROGEN: 14.5

Measured BLOOD UREA NITROGEN, `CN/C(=N/CCSCc1nc[nH]c1C)NC#N` : 17.33

# compound Cn1c(=O)c2c(ncn2CC(O)CO)n(C)c1=O (stereo not drawn) ; its BLOOD UREA NITROGEN = 15.33

Note to self: BLOOD UREA NITROGEN recorded for `O=C1CN=C(c2ccccc2Cl)c2cc([N+](=O)[O-])ccc2N1` was 17.33

Just so you know, measured BLOOD UREA NITROGEN for NC1CCN(c2nc3c(cc2F)c(=O)c(C(=O)O)cn3-c2ccc(F)cc2F)C1 (stereo not drawn) came out at 14.83

Query `CN(C)[C@@H]1C(O)=C(C(N)=O)C(=O)[C@@]2(O)C(O)=C3C(=O)c4c(O)ccc(Cl)c4[C@@](C)(O)[C@H]3C[C@@H]12` yields BLOOD UREA NITROGEN of 15.33

Form field BLOOD UREA NITROGEN, entry `COc1ccc(C2C(=O)c3ccccc3C2=O)cc1` : 15

// field: BLOOD UREA NITROGEN; key: `NCCCC(O)(P(=O)(O)O)P(=O)(O)O` ; value = 15

The measured BLOOD UREA NITROGEN associated with `CN(C/C=C/C#CC(C)(C)C)Cc1cccc2ccccc12` reads 14.83

Just so you know, measured BLOOD UREA NITROGEN for `COC1=C(OC)C(=O)C(CCCCCCCCCCO)=C(C)C1=O` came out at 17.33

BLOOD UREA NITROGEN recorded for this compound, `CCN(CC)CCOc1ccc(/C(=C(/Cl)c2ccccc2)c2ccccc2)cc1` , is 17.67

BLOOD UREA NITROGEN reported for this compound `Clc1ccccc1CN1CCc2sccc2C1` : 15

Lookup result for `COc1cc2nc(N3CCN(C(=O)c4ccco4)CC3)nc(N)c2cc1OC` ; measured BLOOD UREA NITROGEN: 17.33

Record O=C1C(CC[S+]([O-])c2ccccc2)C(=O)N(c2ccccc2)N1c1ccccc1 (stereo not drawn) . Reported BLOOD UREA NITROGEN: 17.33
